# Test system: LXRb homodimer (NR concentration 270 nM)
# protocol: PBM binding z-score (relative to random genomic background probes); higher = stronger binding; sequences stand for … in GC…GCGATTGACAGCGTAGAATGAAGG
So I've got a bunch of sequences here, and I need their PBM binding z-score values.
Give bare numbers.

Example entries begin here.
1. GGAACGAGGGCTAGTTGATAGCAGAGTTTGATGG
-0.992
2. CCTACTGGGCCAATGGTCATTGATTCCAATGCTC
-0.674
3. ACTTACGGGCCAACGAGGTTATAGCACGCGTATA
-0.0337

Hi team, please reply with PBM binding z-score for each item in this list.
1. TCGAGTGGGTTAGGGGCATTCAGAATGGCGTCGA
2. CGTCAAAGTTCAACTAACGTAACGTAAAGCACGC
3. ACTAGCAGGCCAAGGTTGGGTCACTCAAACAAAG
4. GATACAGGGTCAGCTAGAGGCGAGAGTATGGAAA

[0.759, 2.43, -1.03, -0.792]

Give one value of PBM binding z-score per listed sequence.
1. AGAATGAGGTTACCCAAGATCAGGGAAACGCTTG
2. TTACCAAGGAGAAAGGTCGTTGATGCACGCCTTG
3. ATACCAAGGTGATCATGAGGTCGTTGATACTAAC

-0.333
-0.338
-0.0501

Attribution: the supplement of paper PMC6555819
